biological target: PTB1 (human, UniProt P26599-1 1-531); test: EMSA
pKd: −log10 of the molar value.

- binder: "GGAUCCUUCUCUCUGCUUCUCUCUCGCUGGCCCUUAGGAGG (structured_RNA) [c-src 5' SL (39-mer)]"
  pKd: 7.35

Cited source: paper PMC2766422
